Read-out record for UniProtKB Q14289: IC50
Sequence (Q14289 whole entry): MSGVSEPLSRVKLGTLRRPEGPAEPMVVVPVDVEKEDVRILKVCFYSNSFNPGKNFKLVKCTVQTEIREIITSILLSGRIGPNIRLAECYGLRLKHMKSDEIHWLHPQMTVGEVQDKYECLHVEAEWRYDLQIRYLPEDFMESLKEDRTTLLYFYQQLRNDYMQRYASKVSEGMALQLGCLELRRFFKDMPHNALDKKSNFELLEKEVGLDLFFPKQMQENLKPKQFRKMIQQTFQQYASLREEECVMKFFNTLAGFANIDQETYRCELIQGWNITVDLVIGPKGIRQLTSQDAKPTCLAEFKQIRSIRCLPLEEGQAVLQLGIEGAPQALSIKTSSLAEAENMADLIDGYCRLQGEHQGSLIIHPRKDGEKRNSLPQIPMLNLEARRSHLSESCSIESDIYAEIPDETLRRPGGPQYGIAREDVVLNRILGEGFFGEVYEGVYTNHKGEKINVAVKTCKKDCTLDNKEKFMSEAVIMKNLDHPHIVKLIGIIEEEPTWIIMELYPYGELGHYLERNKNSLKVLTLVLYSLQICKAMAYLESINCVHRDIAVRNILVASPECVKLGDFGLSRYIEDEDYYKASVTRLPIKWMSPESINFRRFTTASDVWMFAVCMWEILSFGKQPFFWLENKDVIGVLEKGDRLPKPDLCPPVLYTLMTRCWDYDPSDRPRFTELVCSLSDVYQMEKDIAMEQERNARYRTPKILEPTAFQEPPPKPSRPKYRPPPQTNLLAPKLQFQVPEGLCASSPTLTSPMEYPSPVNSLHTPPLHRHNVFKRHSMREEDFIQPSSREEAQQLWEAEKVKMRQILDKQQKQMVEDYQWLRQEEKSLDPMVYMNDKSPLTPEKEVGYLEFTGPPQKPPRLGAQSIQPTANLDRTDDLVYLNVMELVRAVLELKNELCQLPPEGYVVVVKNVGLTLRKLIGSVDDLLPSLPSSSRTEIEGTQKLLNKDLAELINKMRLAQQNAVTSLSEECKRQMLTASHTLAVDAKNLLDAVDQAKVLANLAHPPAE

{"molecule": "COc1cc(N2CCOCC2)ccc1Nc1nc2c(c(Nc3ccccc3S(=O)(=O)NC3CCCCC3)n1)C1(CC1)CN2", "IC50": "< 500 nM"}
{"molecule": "COc1cc(-n2cccn2)ccc1Nc1nc2c(c(Nc3ccccc3S(=O)(=O)NC(C)C)n1)CCN2", "IC50": "< 200 nM"}
{"molecule": "CC(C)NS(=O)(=O)c1ccccc1Nc1nc(Nc2ccc(CO)cc2)nc2c1CCN2", "IC50": "< 20 nM"}
{"molecule": "COc1cc(N2CCOCC2)ccc1Nc1nc2c(c(Nc3ccccc3S(=O)(=O)NC3CCCCC3)n1)C(C)CN2 (racemic)", "IC50": "< 500 nM"}
